B1: TPR 5TU (parent)
chain: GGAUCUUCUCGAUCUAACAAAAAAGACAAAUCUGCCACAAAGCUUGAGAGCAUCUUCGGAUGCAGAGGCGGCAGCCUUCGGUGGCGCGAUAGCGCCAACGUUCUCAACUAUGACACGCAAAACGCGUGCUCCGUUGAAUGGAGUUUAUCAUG

Variants of: B1
method description: polymerase ribozyme fitness, log enrichment relative to wild type (log ratio); higher = more active; in vitro selection for triplet polymerase activity
This sample holds only a part of the variants without activity.
attribute measured: polymerase ribozyme fitness (log ratio)
Write the number on its own, no unit after it.

U56A C125G ... -1.56
C38U C95A C108U C132U ... -3.39
G86U A120G C129A U145G ... -4.13
C57U A73G G84C C95A C118G ... -2.62
G50A G84A ... -2.43
A19U U45G ... -0.38

# ---- query variant ----
Exam item: What value of polymerase ribozyme fitness (log ratio) has been recorded for this entry: C57U A91U U102G G152U
Marked response: -3.9
